Entry source: patent US20190321483A1

System: Human cKIT on human mobilized peripheral blood hematopoietic stem cells (human, UniProt P10721 26-976)
Assay Method Text: cell-based or functional assay
Consider the following binders; for each one, report its EC50 (ng/ml), cell viability after 7 days, Human CD90+ cells.
Give bare numbers, in ng/mL.

Reference set, count: 4
J19: Anti-cKIT Fab′2 conjugated to Compound (2), DAR 4 (Fab, V domains shown, Compound (2) on native cysteine LC-214C (EU); Compound (2) on native cysteines HC-220C-226C-229C (EU)) VH: QVQLVQSGAEVKKPGSSVKVSCKASGGTFSSHALSWVRQAPGQGLEWMGGIIPSFGTADYAQKFQGRVTITADESTSTAYMELSSLRSEDTAVYYCARGLYDFDYWGQGTLVTVSS VL: DIQMTQSPSSLSASVGDRVTITCRASQDISQDLAWYQQKPGKAPKLLIYDASSLQSGVPSRFSGSGSGTDFTLTISSLQPEDFAVYYCQQYYYLPSTFGQGTKVEIKR | 23
J22: Anti-cKIT Fab′3 conjugated to Compound (2), DAR 4 (Fab, V domains shown, Compound (2) on native cysteine LC-214C (EU); Compound (2) on native cysteines HC-220C-226C-229C (EU)) VH: QVQLVQSGAEVKKPGSSVKVSCKASGGTFSSYAISWVRQAPGQGLEWMGTIGPFEGQPRYAQKFQGRVTITADESTSTAYMELSSLRSEDTAVYYCARGGYISDFDVWGQGTLVTVSS VL: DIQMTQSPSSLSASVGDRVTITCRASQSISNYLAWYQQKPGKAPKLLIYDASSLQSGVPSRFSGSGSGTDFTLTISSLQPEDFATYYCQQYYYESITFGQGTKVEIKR | 17
J14: Anti-cKIT Fab′1 conjugated to mc-MMAF, DAR 4 (Fab, V domains shown, mc-MMAF on native cysteine LC-214C (EU); mc-MMAF on native cysteines HC-220C-226C-229C (EU)) VH: QVQLVQSGAEVKKPGSSVKVSCKASGGTFSSYAISWVRQAPGQGLEWMGVIFPAEGAPGYAQKFQGRVTITADESTSTAYMELSSLRSEDTAVYYCARGGYISDFDVWGQGTLVTVSS VL: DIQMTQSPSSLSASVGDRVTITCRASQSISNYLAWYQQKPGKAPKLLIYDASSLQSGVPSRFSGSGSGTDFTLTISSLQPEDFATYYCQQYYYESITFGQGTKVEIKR | 11
J3: Anti-cKIT Fab′3 conjugated to Compound (1), DAR 4 (Fab, V domains shown, Compound (1) on native cysteine LC-214C (EU); Compound (1) on native cysteines HC-220C-226C-229C (EU)) VH: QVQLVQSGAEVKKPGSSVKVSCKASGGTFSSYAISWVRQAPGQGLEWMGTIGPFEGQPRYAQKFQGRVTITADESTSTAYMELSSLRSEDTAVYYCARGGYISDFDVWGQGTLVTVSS VL: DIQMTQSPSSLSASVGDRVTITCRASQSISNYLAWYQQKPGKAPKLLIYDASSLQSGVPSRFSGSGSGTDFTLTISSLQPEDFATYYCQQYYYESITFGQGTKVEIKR | 12

Kindly review the next binder as well.
Asked: Supply recorded EC50 (ng/ml), cell viability after 7 days, Human CD90+ cells for J21: Anti-cKIT Fab′3 conjugated to Compound (5), DAR 4 (Fab, V domains shown, Compound (5) on native cysteine LC-214C (EU); Compound (5) on native cysteines HC-220C-226C-229C (EU)) VH: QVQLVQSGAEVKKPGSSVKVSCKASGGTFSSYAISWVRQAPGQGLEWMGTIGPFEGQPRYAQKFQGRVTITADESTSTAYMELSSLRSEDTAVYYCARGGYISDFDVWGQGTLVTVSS VL: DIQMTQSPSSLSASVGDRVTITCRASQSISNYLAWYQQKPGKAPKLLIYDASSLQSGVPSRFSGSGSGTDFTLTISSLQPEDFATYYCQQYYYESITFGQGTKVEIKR here.
Given back: 22
